# system-name: p38 MAPKγ (MAPK12) (Homo sapiens)
# Sequence (P53778 1-367): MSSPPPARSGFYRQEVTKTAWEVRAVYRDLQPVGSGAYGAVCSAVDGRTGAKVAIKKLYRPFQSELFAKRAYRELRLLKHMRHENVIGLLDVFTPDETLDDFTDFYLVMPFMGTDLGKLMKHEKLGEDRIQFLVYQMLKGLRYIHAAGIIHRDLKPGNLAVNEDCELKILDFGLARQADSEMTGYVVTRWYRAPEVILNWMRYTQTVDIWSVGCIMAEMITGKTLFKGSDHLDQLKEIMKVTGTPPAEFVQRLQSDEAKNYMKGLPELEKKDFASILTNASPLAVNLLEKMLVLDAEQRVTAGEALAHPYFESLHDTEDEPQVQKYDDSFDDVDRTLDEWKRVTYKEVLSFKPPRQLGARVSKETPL
Would you kindly list pIC50 for each of these molecules?
# reply with the number alone; pIC50 is -log10 of concentration in mol/L

Input line: Using known records, supply pIC50 for COCCNC(=O)Nc1cc(Oc2ccc(NC(=O)Nc3cc(C(C)(C)C)nn3-c3ccc(OC)cc3)c(Cl)c2Cl)ccn1
Output line: 7.17

Input line: Read off the recorded pIC50 for Cc1ccc(-n2nc(C3(C)CCCCC3)cc2NC(=O)Nc2ccc(Oc3ccnc(NC(=O)N4CCCC4)c3)c(Cl)c2Cl)cc1
Output line: 6.13

Input line: Item CNC(=O)Nc1nccc(Oc2ccc(NC(=O)Nc3cc(C(C)(C)C)nn3-c3ccc(CO)cc3)c(Cl)c2Cl)n1 : provide pIC50
Output line: 6.86

Input line: Supply recorded pIC50 for COc1ccc(-n2nc(C(C)(C)C)cc2NC(=O)Nc2ccc(Oc3ccnc(NC(=O)NCCO)c3)c(Cl)c2Cl)cc1 here.
Output line: 7.35

Input line: Return value of pIC50 for input COCC(=O)Nc1cc(Oc2cc(Cl)c(NC(=O)Nc3cc(C(C)(C)C)nn3-c3ccc(C)cc3)cc2F)ccn1 , no commentary.
Output line: 7.44

Input line: Respond only with pIC50 recorded for CC(C)(C)c1cc(NC(=O)Nc2ccc(Oc3ccnc(NC(=O)CN4CCOCC4)c3)c(Cl)c2Cl)n(-c2ccc(CO)cc2)n1
Output line: 7.65

Input line: Give me measured pIC50, please, for this molecule: CNC(=O)Nc1cc(Oc2ccc(NC(=O)Nc3cc(C(C)(C)C)nn3-c3ccc(OC)cc3)c(Cl)c2Cl)ccn1
Output line: 7.17

Input line: Report pIC50, nothing else, for this molecule: COCC(=O)Nc1cc(Oc2ccc(NC(=O)Nc3cc(C(C)(C)C)nn3-c3ccc(C)cc3)c3cccnc23)ccn1
Output line: 7.24

---

I'd appreciate it if you could supply IC50 values for the items below.
# Test system: TNFα release in THP-1 cells
# experimental-protocol: LPS-induced TNFα release in THP-1 cells
# Assay type: cell-based, human
# condition-context: Homo sapiens
Please respond with the number in nM and leave the unit unwritten.

Input line: Please give measured IC50 of the following entry: COCC(=O)Nc1cc(Oc2ccc(NC(=O)Nc3cc(C(C)(C)C)nn3-c3ccc(C)cc3)c(Cl)c2)ccn1
Output line: 0.6

Input line: Retrieve IC50 measured for COc1ccc(-n2nc(C(C)(C)C)cc2NC(=O)Nc2ccc(Oc3ccnc(NC(=O)NCCN(C)C)c3)c(Cl)c2Cl)cc1 and print it.
Output line: 1.7

Input line: Read off the recorded IC50 for COc1ccc(-n2nc(C(C)(C)C)cc2NC(=O)Nc2ccc(Oc3ccnc(NC(=O)CN4CCOCC4)c3)c(Cl)c2Cl)cc1
Output line: 0.8

Input line: Return reported IC50. Input molecule: COCC(=O)Nc1cc(Oc2ccc(NC(=O)Nc3cc(C(C)(C)C)nn3-c3ccc(C)cc3)cc2Cl)ccn1
Output line: 2.2

Input line: Return value of IC50 for input COCC(=O)Nc1cc(Oc2ccc(NC(=O)Nc3cc(C(C)(C)C)nn3-c3ccc(C)cc3)cc2Br)ccn1 , no commentary.
Output line: 1.5

Input line: Give me measured IC50, please, for this molecule: COc1ccc(-n2nc(C(C)(C)C)cc2NC(=O)Nc2ccc(Oc3ccnc(NC(=O)NCCN4CCOCC4)c3)c(Cl)c2Cl)cc1
Output line: 1.4

Input line: Report IC50, nothing else, for this molecule: COc1ccc(-n2nc(C(C)(C)C)cc2NC(=O)Nc2ccc(Oc3ccnc(NC(=O)CN(C)C)c3)c(Cl)c2Cl)cc1
Output line: 0.4

---

For each of the molecules below, state its MTT Assay (Viability) 24 h d-U937, percentage loss of cell viability.
# Tested on: Differentiated U937 cells
# experimental-protocol: Cell viability MTT assay
# Format: cell-based, human
# condition-context: 24 h in 10% FCS; negative = apparent increase in viability
Give your result in % as a bare value.

Input line: Using the record for CC(C)(C)c1cc(NC(=O)Nc2ccc(Oc3ccnc(NC(=O)N4CCCC4)c3)c(Cl)c2Cl)n(-c2ccc(O)cc2)n1 , state its measured MTT Assay (Viability) 24 h d-U937, percentage loss of cell viability.
Output line: 6.6

Input line: State its MTT Assay (Viability) 24 h d-U937, percentage loss of cell viability: COc1ccc(-n2nc(C(C)(C)C)cc2NC(=O)Nc2ccc(Oc3ccnc(NC(=O)CN4CCOCC4)c3)c(Cl)c2Cl)cc1
Output line: 56.2

Input line: Output MTT Assay (Viability) 24 h d-U937, percentage loss of cell viability of COCC(=O)Nc1nccc(Oc2ccc(NC(=O)Nc3cc(C(C)(C)C)nn3-c3ccc(CO)cc3)c(Cl)c2Cl)n1
Output line: 76.6

Input line: Recall and state the measured MTT Assay (Viability) 24 h d-U937, percentage loss of cell viability for CNC(=O)Nc1cc(Oc2ccc(NC(=O)Nc3cc(C(C)(C)C)nn3-c3ccc(OC)cc3)c(Cl)c2Cl)ccn1 .
Output line: 65.3

Input line: Please give the documented MTT Assay (Viability) 24 h d-U937, percentage loss of cell viability of COc1ccc(-n2nc(C(C)(C)C)cc2NC(=O)Nc2ccc(Oc3ccnc(NC(=O)N4CCCC4(C)C)c3)c(Cl)c2Cl)cc1
Output line: 26.7

Input line: Look up MTT Assay (Viability) 24 h d-U937, percentage loss of cell viability of Cc1ccc(-n2nc(C(C)(C)C)cc2NC(=O)Nc2ccc(Oc3ccnc(NC(=O)N(C)C)c3)c(Cl)c2Cl)cc1 and report it.
Output line: 51.6

Input line: Identify measured MTT Assay (Viability) 24 h d-U937, percentage loss of cell viability corresponding to CNC(=O)Nc1cc(Oc2ccc(NC(=O)Nc3cc(C(C)(C)C)nn3-c3ccc(OC)cc3)c3ncccc23)ccn1
Output line: −56.2

Input line: Kindly indicate its recorded MTT Assay (Viability) 24 h d-U937, percentage loss of cell viability. Item: CNC(=O)Nc1cc(Oc2ccc(NC(=O)Nc3cc(C(C)(C)C)nn3-c3ccc(OC)cc3)c(Cl)c2Cl)ncn1
Output line: 32.9

Input line: Provide one value: measured MTT Assay (Viability) 24 h d-U937, percentage loss of cell viability of COc1ccc(-n2nc(C(C)(C)C)cc2NC(=O)Nc2ccc(Oc3ccnc(NC(=O)N4CCC(O)C4)c3)c(Cl)c2Cl)cc1 (stereo not drawn)
Output line: 58.6

Input line: Please give the documented MTT Assay (Viability) 24 h d-U937, percentage loss of cell viability of CC(C)(C)c1cc(NC(=O)Nc2ccc(Oc3ccnc(NC(=O)NC4CC4)c3)c(Cl)c2Cl)n(-c2ccc(CO)cc2)n1
Output line: 49.2

Input line: Output measured MTT Assay (Viability) 24 h d-U937, percentage loss of cell viability for this item: CNC(=O)Nc1cc(COc2ccc(NC(=O)Nc3cc(C(C)(C)C)nn3-c3ccc(C)cc3)c(Cl)c2Cl)ccn1
Output line: 8.8

Input line: Please look at this molecule and report its MTT Assay (Viability) 24 h d-U937, percentage loss of cell viability: CNC(=O)Nc1cc(Oc2ccc(NC(=O)Nc3cc(C(C)(C)C)nn3-c3ccc(CO)cc3)c3cccnc23)ccn1
Output line: −22.9

Input line: Supply MTT Assay (Viability) 24 h d-U937, percentage loss of cell viability value. Item: COCC(=O)Nc1cc(Oc2ccc(NC(=O)Nc3cc(C(C)(C)C)nn3-c3ccc(C)cc3)c(C(F)(F)F)c2)ccn1
Output line: 22.9

Input line: Given the molecule Cc1ccc(-n2nc(C(C)(C)C)cc2NC(=O)Nc2ccc(Oc3ccnc(NC(=O)N4CCCC4)c3)c(Cl)c2Cl)cc1 , write its reported MTT Assay (Viability) 24 h d-U937, percentage loss of cell viability.
Output line: 26.9

Input line: For CN(C)CCNC(=O)Nc1cc(Oc2ccc(NC(=O)Nc3cc(C(C)(C)C)nn3-c3ccc(CO)cc3)c(Cl)c2Cl)ncn1 , write its MTT Assay (Viability) 24 h d-U937, percentage loss of cell viability.
Output line: 73.9

Input line: Respond only with MTT Assay (Viability) 24 h d-U937, percentage loss of cell viability recorded for COCC(=O)Nc1cc(Oc2ccc(NC(=O)Nc3cc(C(C)(C)C)nn3-c3ccc(C)cc3)c(Cl)c2F)ccn1
Output line: 73.1

Input line: Please list MTT Assay (Viability) 24 h d-U937, percentage loss of cell viability recorded for the molecule CC(C)(C)c1cc(NC(=O)Nc2ccc(Oc3ccnc(NC(=O)CN4CCOCC4)c3)c(Cl)c2Cl)n(-c2ccc(CO)cc2)n1
Output line: 84.1

Input line: Supply measured MTT Assay (Viability) 24 h d-U937, percentage loss of cell viability of CNCC(=O)Nc1cc(Oc2ccc(NC(=O)Nc3cc(C(C)(C)C)nn3-c3ccc(OC)cc3)c(Cl)c2Cl)ccn1 in your reply.
Output line: 67.9

Input line: Annotate the molecule CNC(=O)Nc1cc(Oc2ccc(NC(=O)Nc3cc(C(C)(C)C)nn3-c3ccc(C(=O)OC)cc3)c(Cl)c2Cl)ccn1 with its measured MTT Assay (Viability) 24 h d-U937, percentage loss of cell viability.
Output line: 0.0

Input line: In one line, give reported MTT Assay (Viability) 24 h d-U937, percentage loss of cell viability of the entry COc1ccc(-n2nc(C(C)(C)C)cc2NC(=O)Nc2ccc(Oc3ccnc(NC(=O)NCCCn4ccnc4)c3)c(Cl)c2Cl)cc1 .
Output line: 75.5

Input line: Give the value of MTT Assay (Viability) 24 h d-U937, percentage loss of cell viability reported for the following: CNC(=O)Nc1nccc(Oc2ccc(NC(=O)Nc3cc(C(C)(C)C)nn3-c3ccc(CO)cc3)c(Cl)c2Cl)n1
Output line: 58.6

Input line: Read off the recorded MTT Assay (Viability) 24 h d-U937, percentage loss of cell viability for COCC(=O)Nc1cc(Oc2cc(Cl)c(NC(=O)Nc3cc(C(C)(C)C)nn3-c3ccc(C)cc3)cc2Cl)ccn1
Output line: −3.0

Input line: Give me measured MTT Assay (Viability) 24 h d-U937, percentage loss of cell viability, please, for this molecule: COCC(=O)Nc1cc(Oc2ccc(NC(=O)Nc3cc(C(C)(C)C)nn3-c3ccc(C)cc3)c(Cl)c2)ccn1
Output line: 54.9

Input line: Complete the entry with MTT Assay (Viability) 24 h d-U937, percentage loss of cell viability for COCC(=O)Nc1cc(Oc2ccc(NC(=O)Nc3cc(C(C)(C)C)nn3-c3ccc(O)cc3)c(Cl)c2Cl)ccn1
Output line: 76.5

Input line: Fill in MTT Assay (Viability) 24 h d-U937, percentage loss of cell viability for record Cc1ccc(-n2nc(C(C)(C)C)cc2NC(=O)Nc2ccc(OCc3ccnc(NC(=O)N4CCCC4)c3)c(Cl)c2Cl)cc1
Output line: 6.9

Input line: Annotate the molecule CNC(=O)Nc1nccc(Oc2ccc(NC(=O)Nc3cc(C(C)(C)C)nn3-c3ccc(OC)cc3)c(Cl)c2Cl)n1 with its measured MTT Assay (Viability) 24 h d-U937, percentage loss of cell viability.
Output line: −29.3

Input line: Tell us which MTT Assay (Viability) 24 h d-U937, percentage loss of cell viability value is on record for COCC(=O)Nc1cc(Oc2ccc(NC(=O)Nc3cc(C(C)(C)C)nn3-c3ccc(C)cc3)cc2S(C)(=O)=O)ccn1
Output line: 49.3
